Biological target: UniProtKB P01375
Assay: TNF-Induced HEK-Blue Assay
Assay type: cell-based
Conditions: HEK-Blue-CD40L cells, NF-kB-driven secreted alkaline phosphatase reporter; TNFα 0.5 ng/ml; 18 h; read-out: TNF induced HEK-Blue assay IC50 value
pIC50: −log10 of the molar value. Positions of bridges follow the written chain, without caps; N, C: chain ends. Non-standard residues stand in square brackets, D forms with d. Residues, ends and D or L forms follow the SMILES beside them. Ala(morpholin-4-yl) = N[C@@H](CN1CCOCC1)C(=O)O; Phe(4-CH2NH2) = NCc1ccc(C[C@H](N)C(=O)O)cc1; Bip = N[C@@H](Cc1ccc(-c2ccccc2)cc1)C(=O)O; Sar = CNCC(=O)O
value.type: pIC50

The molecule CC(C)C[C@@H]1NC(=O)[C@H](Cc2ccc(O)cc2)NC(=O)[C@H](C(C)C)NC(=O)[C@@H]2CCCN2C(=O)[C@H](CC(N)=O)NC(=O)[C@H](CCCNC(=N)N)NC(=O)[C@H](CC(=O)O)NC(=O)[C@H](Cc2ccc(O)cc2)NC(=O)CN(C)C(=O)[C@H](Cc2ccc(-c3ccccc3)cc2)NC(=O)[C@H](Cc2ccc(-c3ccccc3)cc2)NC(=O)[C@H](CN2CCOCC2)NC(=O)CSC[C@@H](C(=O)NCC(N)=O)NC1=O [Example 83] ({CH2CO}-[Ala(morpholin-4-yl)][Bip][Bip][Sar]YDRNPVYLCG-NH2; thioether N-13) showed pIC50 equal to 6.70 to 7.30

Now look at this one.
Input CC(C)C[C@@H]1NC(=O)[C@H](CCCNC(=N)N)NC(=O)[C@H](C(C)C)NC(=O)[C@@H]2CCCN2C(=O)[C@H](Cc2ccc(CN)cc2)NC(=O)[C@H](CCCNC(=N)N)NC(=O)[C@H](CC(=O)O)NC(=O)[C@@H]2CCCN2C(=O)CN(C)C(=O)[C@H](Cc2ccc(-c3ccccc3)cc2)NC(=O)[C@H](Cc2ccc(-c3ccccc3)cc2)NC(=O)[C@H](CN2CCOCC2)NC(=O)CSC[C@@H](C(=O)NCC(N)=O)NC1=O [Example 51] ({CH2CO}-[Ala(morpholin-4-yl)][Bip][Bip][Sar]PDR[Phe(4-CH2NH2)]PVRLCG-NH2; thioether N-13) . Output pIC50: 5.70 to 6.70

====

Molecular target: TNFα (Homo sapiens, UniProt P01375)
Sequence (P01375 77-233 limits assumed): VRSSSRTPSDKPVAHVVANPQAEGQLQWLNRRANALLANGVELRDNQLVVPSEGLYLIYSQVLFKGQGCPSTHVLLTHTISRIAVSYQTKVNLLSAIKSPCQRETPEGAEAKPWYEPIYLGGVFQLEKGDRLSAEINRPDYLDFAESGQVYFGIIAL
Assay: TNF-Induced HEK-Blue Assay
Assay type: cell-based
Settings: HEK-Blue-CD40L cells, NF-kB-driven secreted alkaline phosphatase reporter; TNFα 0.5 ng/ml; 18 h; read-out: TNF induced HEK-Blue assay IC50 value
pIC50: −log10 of the molar value. Positions of bridges follow the written chain, without caps; N, C: chain ends. Non-standard residues stand in square brackets, D forms with d. Residues, ends and D or L forms follow the SMILES beside them. Bip(4'-NHAc) = CC(=O)Nc1ccc(-c2ccc(C[C@H](N)C(=O)O)cc2)cc1; Ala(morpholin-4-yl) = N[C@@H](CN1CCOCC1)C(=O)O; Bip = N[C@@H](Cc1ccc(-c2ccccc2)cc1)C(=O)O; Chg = N[C@H](C(=O)O)C1CCCCC1; Tle = CC(C)(C)[C@H](N)C(=O)O; Sar = CNCC(=O)O
value.type: pIC50

Reported pIC50 of CC[C@H](C)[C@@H]1NC(=O)[C@@H]2CCCN2C(=O)[C@H]([C@@H](C)CC)NC(=O)[C@@H](CCCNC(=N)N)NC(=O)[C@H](CC(=O)O)NC(=O)[C@H](Cc2ccc(O)cc2)NC(=O)CN(C)C(=O)[C@H](Cc2ccc(-c3ccc(NC(C)=O)cc3)cc2)NC(=O)[C@H](Cc2ccc(-c3ccccc3)cc2)NC(=O)[C@H](C(C)(C)C)NC(=O)CSC[C@@H](C(=O)NCC(N)=O)NC(=O)[C@H](CC(C)C)NC(=O)[C@H](Cc2ccccc2)NC1=O [Example 296] ({CH2CO}-[Tle][Bip][Bip(4'-NHAc)][Sar]YD[dR]IPIFLCG-NH2; thioether N-13) : > 7.30

Further cases:
The molecule identified as CC(C)C[C@@H]1NC(=O)[C@H](Cc2ccc(O)cc2)NC(=O)[C@H](C2CCCCC2)NC(=O)[C@@H]2CCCN2C(=O)[C@H](C(C)C)NC(=O)[C@@H](CCCNC(=N)N)NC(=O)[C@H](CC(=O)O)NC(=O)[C@@H]2CCCN2C(=O)CN(C)C(=O)[C@H](Cc2ccc(-c3ccccc3)cc2)NC(=O)[C@H](Cc2ccc(-c3ccccc3)cc2)NC(=O)[C@H](CN2CCOCC2)NC(=O)CSC[C@@H](C(=O)NCC(N)=O)NC1=O [Example 209] ({CH2CO}-[Ala(morpholin-4-yl)][Bip][Bip][Sar]PD[dR]VP[Chg]YLCG-NH2; thioether N-13) registered its pIC50 at 5.70 to 6.70
